- Target of assay: Enoyl-[acyl-carrier-protein] reductase [NADPH] FabI (Staphylococcus aureus (strain MRSA252))
- Sequence (Q6GI75 whole entry): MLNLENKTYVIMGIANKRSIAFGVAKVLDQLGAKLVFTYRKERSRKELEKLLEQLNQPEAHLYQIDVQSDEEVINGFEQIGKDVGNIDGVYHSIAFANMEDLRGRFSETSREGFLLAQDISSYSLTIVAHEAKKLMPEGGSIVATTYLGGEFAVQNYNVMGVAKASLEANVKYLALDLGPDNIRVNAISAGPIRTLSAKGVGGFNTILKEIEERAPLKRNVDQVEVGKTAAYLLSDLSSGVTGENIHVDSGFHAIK
- Measurement description: Tight-binding assay
- Stated conditions: pH 7.5

# Structure smiles string, Ki [nM]
records = [
    ("Cc1ccc(Oc2ccccc2)c(O)c1", 494),
]

The reported numbers originate from BindingDB's records for patent US10071965.
